# Tested on: Escherichia coli TOP10
# procedure.summary: shrunken log2 fold change of peptide-encoding DNA abundance (4.5 h post-induction vs induction); higher = less antimicrobial activity (less host growth inhibition)
# condition.set: time post-induction: 4.5 h; library: site-saturation at positions 5, 18, 19, 20
Class assignment keyed on shrunken log2 fold change, ranges A: < -0.1; B: ≥ -0.1 and < 0.08; C: ≥ 0.08

QUERY: Class label required: RRIRNRPPRLPRPRPRPGVMPRP
RESULT: A

----------
Items are presented alongside their recorded shrunken log2 fold change.
# Tested on: Escherichia coli TOP10
# procedure.summary: shrunken log2 fold change of peptide-encoding DNA abundance (4.5 h post-induction vs induction); higher = less antimicrobial activity (less host growth inhibition)
# condition.set: time post-induction: 4.5 h; library: site-saturation at positions 5, 18, 19, 20
Answer with a number only.

>>> readout_number("RRIRERPPRLPRPRPRPRNFPRP")
-0.456
>>> readout_number("RRIRSRPPRLPRPRPRPYNIPRP")
-0.579
>>> readout_number("RRIRNRPPRLPRPRPRPKVIPRP")
-0.264
>>> readout_number("RRIRVRPPRLPRPRPRPHVGPRP")
0.0858
>>> readout_number("RRIRTRPPRLPRPRPRPNFPPRP")
-0.00778

QUERY: Value wanted: shrunken log2 fold change (Escherichia coli TOP10) of entry RRIRVRPPRLPRPRPRPQNLPRP
RESULT: -0.672

QUERY: Value wanted: shrunken log2 fold change (Escherichia coli TOP10) of entry RRIRMRPPRLPRPRPRPTSTPRP
RESULT: 0.16

----------
# Tested on: Escherichia coli TOP10
# procedure.summary: shrunken log2 fold change of peptide-encoding DNA abundance (4.5 h post-induction vs induction); higher = less antimicrobial activity (less host growth inhibition)
# condition.set: time post-induction: 4.5 h; library: site-saturation at positions 5, 18, 19, 20
Values of shrunken log2 fold change greater than or equal to -0.1 map to 1.0; values below map to 0.0.

See these solved cases before continuing.
>>> assigned_label("RRIRKRPPRLPRPRPRPIACPRP")
1.0
>>> assigned_label("RRIRCRPPRLPRPRPRPYVHPRP")
0.0

QUERY: Please tell me: is the sequence RRIRARPPRLPRPRPRPWTYPRP at or over -0.1 in terms of shrunken log2 fold change?
RESULT: 1.0

QUERY: Please tell me: is the sequence RRIRLRPPRLPRPRPRPSQMPRP at or over -0.1 in terms of shrunken log2 fold change?
RESULT: 0.0

QUERY: Please tell me: is the sequence RRIRMRPPRLPRPRPRPFKHPRP at or over -0.1 in terms of shrunken log2 fold change?
RESULT: 0.0

QUERY: Please tell me: is the sequence RRIRMRPPRLPRPRPRPKAFPRP at or over -0.1 in terms of shrunken log2 fold change?
RESULT: 1.0

QUERY: Please tell me: is the sequence RRIRNRPPRLPRPRPRPVYAPRP at or over -0.1 in terms of shrunken log2 fold change?
RESULT: 0.0

QUERY: Please tell me: is the sequence RRIRTRPPRLPRPRPRPIRHPRP at or over -0.1 in terms of shrunken log2 fold change?
RESULT: 0.0

----------
# Tested on: Escherichia coli TOP10
# procedure.summary: shrunken log2 fold change of peptide-encoding DNA abundance (4.5 h post-induction vs induction); higher = less antimicrobial activity (less host growth inhibition)
# condition.set: time post-induction: 4.5 h; library: site-saturation at positions 5, 18, 19, 20
reported.endpoint: shrunken log2 fold change
Answer with a number only.

>>> readout_number("RRIRERPPRLPRPRPRPYHVPRP")
0.0464
>>> readout_number("RRIRARPPRLPRPRPRPWWMPRP")
0.0201

QUERY: Item RRIRHRPPRLPRPRPRPVRAPRP has what recorded shrunken log2 fold change?
RESULT: 0.571

QUERY: Item RRIRLRPPRLPRPRPRPVSGPRP has what recorded shrunken log2 fold change?
RESULT: 0.525

----------
# Test system: Escherichia coli TOP10
# procedure.summary: shrunken log2 fold change of peptide-encoding DNA abundance (4.5 h post-induction vs induction); higher = less antimicrobial activity (less host growth inhibition)
# condition.set: time post-induction: 4.5 h; library: site-saturation at positions 5, 18, 19, 20
reported.endpoint: shrunken log2 fold change
Answer with a number only.

Observe how each entry below is paired with its result.
>>> readout_number("RRIRNRPPRLPRPRPRPCQIPRP")
-0.0177
>>> readout_number("RRIRKRPPRLPRPRPRPMSYPRP")
-0.0167
>>> readout_number("RRIRGRPPRLPRPRPRPFEAPRP")
0.727
>>> readout_number("RRIRCRPPRLPRPRPRPGWSPRP")
-0.0169
>>> readout_number("RRIRMRPPRLPRPRPRPRQEPRP")
1.13
>>> readout_number("RRIRVRPPRLPRPRPRPIWCPRP")
0.0502

QUERY: Item RRIRQRPPRLPRPRPRPDENPRP has what recorded shrunken log2 fold change?
RESULT: 0.106

QUERY: Item RRIRERPPRLPRPRPRPGPFPRP has what recorded shrunken log2 fold change?
RESULT: -0.128

----------
# System: Escherichia coli TOP10
# procedure.summary: shrunken log2 fold change of peptide-encoding DNA abundance (4.5 h post-induction vs induction); higher = less antimicrobial activity (less host growth inhibition)
# condition.set: time post-induction: 4.5 h; library: site-saturation at positions 5, 18, 19, 20
Values of shrunken log2 fold change greater than or equal to -0.2 map to condition met; values below map to condition not met.

>>> assigned_label("RRIRTRPPRLPRPRPRPDTCPRP")
"condition met"
>>> assigned_label("RRIRERPPRLPRPRPRPMITPRP")
"condition met"

QUERY: Please tell me: is the sequence RRIRDRPPRLPRPRPRPESIPRP at or over -0.2 in terms of shrunken log2 fold change?
RESULT: condition met

QUERY: Please tell me: is the sequence RRIRDRPPRLPRPRPRPSMEPRP at or over -0.2 in terms of shrunken log2 fold change?
RESULT: condition met

QUERY: Please tell me: is the sequence RRIRARPPRLPRPRPRPPAGPRP at or over -0.2 in terms of shrunken log2 fold change?
RESULT: condition met

QUERY: Please tell me: is the sequence RRIRGRPPRLPRPRPRPCHGPRP at or over -0.2 in terms of shrunken log2 fold change?
RESULT: condition not met

QUERY: Please tell me: is the sequence RRIRFRPPRLPRPRPRPHTRPRP at or over -0.2 in terms of shrunken log2 fold change?
RESULT: condition not met

----------
# Tested on: Escherichia coli TOP10
# procedure.summary: shrunken log2 fold change of peptide-encoding DNA abundance (4.5 h post-induction vs induction); higher = less antimicrobial activity (less host growth inhibition)
# condition.set: time post-induction: 4.5 h; library: site-saturation at positions 5, 18, 19, 20
reported.endpoint: shrunken log2 fold change
Answer with a number only.

QUERY: Item RRIRCRPPRLPRPRPRPNSHPRP has what recorded shrunken log2 fold change?
RESULT: -0.556

QUERY: Item RRIRFRPPRLPRPRPRPSMVPRP has what recorded shrunken log2 fold change?
RESULT: -0.509

QUERY: Item RRIRLRPPRLPRPRPRPVTSPRP has what recorded shrunken log2 fold change?
RESULT: -0.0743

QUERY: Item RRIRERPPRLPRPRPRPYIMPRP has what recorded shrunken log2 fold change?
RESULT: -0.542

QUERY: Item RRIRLRPPRLPRPRPRPQVHPRP has what recorded shrunken log2 fold change?
RESULT: -0.184

QUERY: Item RRIRSRPPRLPRPRPRPTNDPRP has what recorded shrunken log2 fold change?
RESULT: -0.162

QUERY: Item RRIRYRPPRLPRPRPRPHMDPRP has what recorded shrunken log2 fold change?
RESULT: -1.85

QUERY: Item RRIRIRPPRLPRPRPRPCTSPRP has what recorded shrunken log2 fold change?
RESULT: -0.438

QUERY: Item RRIRTRPPRLPRPRPRPMEVPRP has what recorded shrunken log2 fold change?
RESULT: 0.117

QUERY: Item RRIRNRPPRLPRPRPRPMINPRP has what recorded shrunken log2 fold change?
RESULT: -0.346

QUERY: Item RRIRHRPPRLPRPRPRPMQSPRP has what recorded shrunken log2 fold change?
RESULT: -0.215

QUERY: Item RRIRGRPPRLPRPRPRPKCFPRP has what recorded shrunken log2 fold change?
RESULT: 0.852

QUERY: Item RRIRMRPPRLPRPRPRPPWTPRP has what recorded shrunken log2 fold change?
RESULT: 1.15

----------
# Test system: Escherichia coli TOP10;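 note: peptides expressed intracellularly from a pBAD plasmid library in pooled LB shake-flask culture, induced with 0.3% L-arabinose, DNA abundance read by NGS, three biological replicates, DESeq2 with apeglm shrinkage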
# procedure.summary: shrunken log2 fold change of peptide-encoding DNA abundance (4.5 h post-induction vs induction); higher = less antimicrobial activity (less host growth inhibition)
# condition.set: time post-induction: 4.5 h; library: site-saturation at positions 5, 18, 19, 20
reported.endpoint: shrunken log2 fold change
Answer with a number only.

Observe how each entry below is paired with its result.
>>> readout_number("RRIRWRPPRLPRPRPRPIGGPRP")
-0.0334
>>> readout_number("RRIRERPPRLPRPRPRPGLQPRP")
0.103
>>> readout_number("RRIRFRPPRLPRPRPRPWFMPRP")
-0.609
>>> readout_number("RRIRCRPPRLPRPRPRPPQEPRP")
-0.069
>>> readout_number("RRIRSRPPRLPRPRPRPCDIPRP")
-0.0321
>>> readout_number("RRIRVRPPRLPRPRPRPERVPRP")
-0.107
>>> readout_number("RRIRNRPPRLPRPRPRPNHDPRP")
-0.602
>>> readout_number("RRIRCRPPRLPRPRPRPLMHPRP")
-0.264
>>> readout_number("RRIRTRPPRLPRPRPRPMPIPRP")
-0.0197
>>> readout_number("RRIRARPPRLPRPRPRPKGRPRP")
0.368

QUERY: Item RRIRCRPPRLPRPRPRPYRNPRP has what recorded shrunken log2 fold change?
RESULT: 0.0132

QUERY: Item RRIRSRPPRLPRPRPRPHWIPRP has what recorded shrunken log2 fold change?
RESULT: -0.279
